# Tested on: LOX IMVI melanoma
# experimental-protocol: NCI-60 one-dose screen, 48 h
# run-conditions: 10 µM unless noted
Compounds without any hit were thinned out: in the full panel of roughly 83,000, 20% have a hit. Active and inactive are the calls of the source. Rule for the calls: active = growth percent below 10; inactive = the rest.
Parameter call: string, one of 1 (active), -1 (inactive)

Below, 2 molecules whose answers are already recorded.
IN: Please let me know the test result on file for `NC(=O)c1ccc[n+](Cc2ccccc2)c1` .
OUT: -1

IN: Please let me know the test result on file for `CN(C)c1nc(-c2cccs2)n2nc(-c3ccc(Cl)cc3)cc2n1` .
OUT: -1

More entries:
IN: Please let me know the test result on file for `N=C(N)c1ccc(-c2ccc(-c3ccco3)o2)cc1F` .
OUT: 1

IN: Please let me know the test result on file for `CC(=O)Oc1c(Cl)c(Cl)c(Cl)c(Cl)c1Cl` .
OUT: -1

IN: Please let me know the test result on file for `CCN(CC)c1ccc(/C=N/NC(=O)c2ccc(S(C)(=O)=O)cc2)c(O)c1` .
OUT: 1

---

The following molecules are listed with their measured growth values.
# System: A549/ATCC NSCLC
# experimental-protocol: NCI-60 one-dose screen, 48 h (100 = growth as untreated, 0 = no growth, -100 = all killed)
# run-conditions: 10 µM unless noted
# Protocol: Growth inhibition of the A549/ATCC human Non-Small Cell Lung tumor cell line is measured as a screen for anti-cancer activity. Cells are grown in 96 well plates and exposed to the test compound for 48 hours. Compounds are tested at a single concentration, which is 10^-5 M for most compounds. The reported endpoint is percent growth (GI% or GIPRCNT), where numbers from 0 - 100% represent growth inhibition, and numbers from -100% - 0 represent cell death. […]
Compounds without any hit were thinned out: in the full panel of roughly 83,000, 20% have a hit. Active and inactive are the calls of the source. The calls were made as follows: active = growth percent below 10; inactive = the rest.

Answered cases to consult:
IN: Quick one: growth of `O=C(/C=C/c1ccccc1Br)c1cccc(OCCCCOc2cccc(C(=O)/C=C/c3ccccc3Br)c2)c1` ?
OUT: 87.7% (inactive)

IN: Quick one: growth of `CCn1c(=O)c(C(=O)NCCCO)c(O)c2ccccc21` ?
OUT: 103% (inactive)

More entries:
IN: Quick one: growth of `CC(C)(c1ccccc1)c1cc(O)c(C(C)(C)c2ccccc2)cc1O` ?
OUT: 28.5% (inactive)

IN: Quick one: growth of CCN1C(=O)N(CC)C2C1N=C(SC)N2/N=C/C=C/c1ccccc1OC (stereo not given) ?
OUT: 17.7% (inactive)

IN: Quick one: growth of `N=c1nc(N2CCCCC2)cc(N)n1O` ?
OUT: 103% (inactive)

IN: Quick one: growth of `O=c1c2cc(Br)cc(Br)c2nc(-c2ccc(Cl)cc2)n1/N=C/c1cccc(F)c1` ?
OUT: 48.6% (inactive)

IN: Quick one: growth of `O=C(c1ccccc1)c1cccc(C(Br)Br)c1` ?
OUT: 86.9% (inactive)

IN: Quick one: growth of `Clc1ccc(C2=NN[C@H](c3cn(-c4ccccc4)nc3-c3ccccc3)C2)cc1` ?
OUT: 46.5% (inactive)

IN: Quick one: growth of CC1OC(n2c3ccccc3c3c4c(c5c6ccccc6[nH]c5c32)C(=O)N(CCN2CCOCC2)C4=O)CC(O)C1O (stereo not given) ?
OUT: 12.2% (inactive)

IN: Quick one: growth of `COc1ccc2[nH]cc(C3(c4c[nH]c5ccc(OC)cc45)C(=O)Nc4ccc(Cl)cc43)c2c1` ?
OUT: 63.6% (inactive)

IN: Quick one: growth of `N#CCCn1cnc2c(N)ncnc21` ?
OUT: 99.9% (inactive)

IN: Quick one: growth of `CCc1c(C)c2ccc(O)c(-c3cc(-c4ccccc4)c(C#N)c(=O)[nH]3)c2oc1=O` ?
OUT: 90% (inactive)

IN: Quick one: growth of O=C1CCCN1C1CCN2CCCc3cccc1c32 (stereo not given) ?
OUT: 107% (inactive)

IN: Quick one: growth of `COc1cc(-c2nn(C(=O)NCCN3CCN(C)CC3)cc2-c2ccncc2)ccc1Cl` ?
OUT: 57% (inactive)

IN: Quick one: growth of `ClCCn1cnc2c(SCc3ccccc3Cl)ncnc21` ?
OUT: 40.1% (inactive)

IN: Quick one: growth of `O=C(CCl)Nc1cc(O)c2c(c1)C(=O)c1cccc(O)c1C2=O` ?
OUT: 91% (inactive)

IN: Quick one: growth of `C#C[C@]1(O)CC[C@H]2[C@@H]3CC=C4c5sc(-c6cccc(Br)c6)nc5CC[C@]4(C)[C@H]3CC[C@@]21C` ?
OUT: 81.2% (inactive)

IN: Quick one: growth of `CNC(=O)c1c(NC(=O)c2cccc(C(F)(F)F)c2)sc2c1CCC(=O)C2` ?
OUT: 13.6% (inactive)

IN: Quick one: growth of COc1cc(C2CC(c3ccccc3)=NN2C=O)ccc1Oc1nc2c(c(=O)n(C)c(=O)n2C)n1C (stereo not given) ?
OUT: 61.5% (inactive)

IN: Quick one: growth of `Cc1cccc(N=NC(=S)NNc2cccc(C)c2)c1` ?
OUT: 105% (inactive)

IN: Quick one: growth of `CN(C)c1nc(-c2ccco2)n2nc(-c3ccc(Cl)cc3)cc2n1` ?
OUT: 49.6% (inactive)
